Test system: PCSK9 gene
procedure_summary: PCSK9 gRNA/SpCas9 editing in primary cynomolgus hepatocytes (Tables 2, 22)
Type: cell-based, cynomolgus monkey
measurement_conditions: 100 ng/RNA/mL; SpCas9 mRNA MS002 1:1 by weight
In the oligonucleotide strings, read from the 5' end, every base follows the letter of its sugar. An asterisk marks phosphorothioate; unmarked linkages are phosphodiester. Other units and linkages are bracketed, terminal groups are in braces. A string of capitals states the bases alone. m = 2'-O-methyl; r = 2'-OH (RNA)
Would you kindly list Cyno Primary Hepatocyte Editing % 100 for each of these molecules?
Answers are plain numbers, in %.

Worked cases, answers included:
GA227: PCSK9 gRNA; protospacer GTCCCGGAAGTTGCCGGCAG (SEQ ID NO: 221) (nucleic acid, sugars from the 5' end m3 r94 m3, linkages s3 o93 s3 (s phosphorothioate, o phosphodiester), T or U not given here) guide: GUCCCGGAAGUUGCCGGCAGGUUUUAGAGCUAGAAAUAGCAAGUUAAAAUAAGGCUAGUCCGUUAUCAACUUGAAAAAGUGGCACCGAGUCGGUGCUUUU
0.56
GA158: PCSK9 gRNA; protospacer GCTAGCCTTGCGTTCCGAGG (SEQ ID NO: 152) (nucleic acid) guide: mG*mC*mU*rArGrCrCrUrUrGrCrGrUrUrCrCrGrArGrGrGrUrUrUrUrArGrArGrCrUrArGrArArArUrArGrCrArArGrUrUrArArArArUrArArGrGrCrUrArGrUrCrCrGrUrUrArUrCrArArCrUrUrGrArArArArArGrUrGrGrCrArCrCrGrArGrUrCrGrGrUrGrCrU*mU*mU*mU
1.04

Next up:
Task: Could you tell me which Cyno Primary Hepatocyte Editing % 100 is on file for GA221: PCSK9 gRNA; protospacer TCATGGCACCCACCTGGCAG (SEQ ID NO: 215) (nucleic acid, sugars from the 5' end m3 r94 m3, linkages s3 o93 s3 (s phosphorothioate, o phosphodiester), T or U not given here) guide: UCAUGGCACCCACCUGGCAGGUUUUAGAGCUAGAAAUAGCAAGUUAAAAUAAGGCUAGUCCGUUAUCAACUUGAAAAAGUGGCACCGAGUCGGUGCUUUU ?
Output: 2.82
